- test.system: GST-RIPK2 fusion protein (human RIPK2 amino acids 1-310) (Homo sapiens (Human), UniProt O43353)
- Sequence (O43353 1-310): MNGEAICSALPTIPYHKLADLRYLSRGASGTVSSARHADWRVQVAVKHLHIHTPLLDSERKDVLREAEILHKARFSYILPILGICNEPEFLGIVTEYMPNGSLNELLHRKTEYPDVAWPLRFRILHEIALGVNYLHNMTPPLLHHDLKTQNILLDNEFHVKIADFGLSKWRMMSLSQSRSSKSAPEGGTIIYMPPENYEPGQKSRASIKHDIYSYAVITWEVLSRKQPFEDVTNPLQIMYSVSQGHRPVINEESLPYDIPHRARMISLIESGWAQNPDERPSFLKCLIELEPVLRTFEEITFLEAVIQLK
- measurement.description: RIPK2 binding competition assay (TR-FRET, Tracer 199)
pIC50: −log10 of the molar value.
outcome.measure: pIC50

For orientation, consider the following solved cases.
CCCS(=O)(=O)Nc1cc(C#N)cc(-c2cnc3cc(OC)c(S(=O)(=O)C(C)(C)C)cn23)c1 [Example 282] = 7.70 to 8.60
COc1cc2ncc(-c3cc(N)c(C#N)c(F)c3)n2cc1S(=O)(=O)C(C)(C)C [Example 333] = 7.70 to 8.60
COc1cc2ncc(-c3cc(F)nc(N[C@@H]4CC[C@@H](O)C4)c3)n2cc1S(=O)(=O)C(C)(C)C (racemic) [Example 197] = 8.60 to 9.00

Let us examine a further case.
Query: Need pIC50 of CCCS(=O)(=O)Nc1cc(COC)cc(-c2cnc3cc(OC)c(S(=O)(=O)C(C)(C)C)cn23)c1 [Example 289] , thanks.
Response: 7.70 to 8.60
